Field: inhibition at 3 µM. Provide a value for each of the compounds that follow.
- TARGET SYSTEM: TDP-43 protein (Homo sapiens)
- Construct: BiFC fluorescent-protein fragments (two complementary halves); expressed in transfected cells
- Sequence (Q13148 whole entry, the tested form may be a part): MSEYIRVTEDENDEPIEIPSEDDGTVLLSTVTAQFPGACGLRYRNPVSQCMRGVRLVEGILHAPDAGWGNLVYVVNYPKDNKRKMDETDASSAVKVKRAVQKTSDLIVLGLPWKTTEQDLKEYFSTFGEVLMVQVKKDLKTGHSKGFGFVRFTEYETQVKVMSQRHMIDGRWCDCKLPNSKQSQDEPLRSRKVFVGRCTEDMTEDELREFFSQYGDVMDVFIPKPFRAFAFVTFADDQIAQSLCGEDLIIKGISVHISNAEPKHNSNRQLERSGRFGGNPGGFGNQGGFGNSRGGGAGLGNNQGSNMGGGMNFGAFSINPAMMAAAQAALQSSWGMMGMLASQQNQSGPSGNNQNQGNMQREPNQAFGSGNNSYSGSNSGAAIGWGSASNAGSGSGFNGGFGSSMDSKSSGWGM
- PROCEDURE TEXT: TDP-43 aggregation inhibition in TDP-43-BiFC cell model (Forskolin-induced)
- Format: cell-based
- MEASUREMENT SETUP: read-out: TDP-43 protein aggregation inhibitory effect: Aggregation inhibitory effect (%) (@3 uM)
Your answer should be a plain number; it is taken to be in %.

In one line, give reported inhibition at 3 µM of the entry `COC1CCN(c2nc3ccc(NN=C(C#N)C#N)cc3o2)CC1` .
100

Look up inhibition at 3 µM of `CC(=O)N1CCN(c2nc3ccc(NN=C(C#N)C#N)cc3o2)CC1` and report it.
41.4

Consider the compound CC1CN(c2nc3ccc(NN=C(C#N)C#N)cc3o2)CC(C)O1 (stereo not drawn) and give its recorded inhibition at 3 µM.
98.6

Entry `CCn1c(N2CCOCC2)nc2cc(NN=C(C#N)C#N)ccc21` needs its inhibition at 3 µM filled in; supply it.
93.9

Write down inhibition at 3 µM measured for item Cc1nc2ccc(NN=C(C#N)C#N)cc2s1 [Comparative compound 1, reference compound]
72.9

Fill in reported inhibition at 3 µM for this entry: `N#CC(C#N)=NNc1ccc2nc(N3CC4CCC(C3)O4)sc2c1`
99.2

Please supply the value of reported inhibition at 3 µM for the item CC1CN(c2nc3ccc(NN=C(C#N)C#N)cc3s2)CC(C)O1 (stereo not drawn)
100

Supply inhibition at 3 µM value. Item: `N#CC(C#N)=NNc1ccc2nc(N3CCCCC3)oc2c1`
81.4

Quickly give me recorded inhibition at 3 µM for `COC1CCN(c2nc3ccc(NN=C(C#N)C#N)cc3s2)CC1`
100

Return reported inhibition at 3 µM. Input compound: `N#CC(C#N)=NNc1ccc2nc(N3CC4CCC(C3)O4)oc2c1`
94.8

# return recorded inhibition at 3 µM for entry `N#CC(C#N)=NNc1ccc2nc(N3C4CCC3COC4)sc2c1`
100

Return reported inhibition at 3 µM. Input compound: `N#CC(C#N)=NNc1ccc2oc(N3CCOCC3)nc2c1`
79.6

For the compound `Cn1c(N2CCOCC2)nc2cc(NN=C(C#N)C#N)ccc21` , give its measured inhibition at 3 µM value.
97.4

Please look at this compound and report its inhibition at 3 µM: CC1CN(c2nc3ccc(NN=C(C#N)C#N)cc3o2)CCO1 (stereo not drawn)
97.5

Give the reported value of inhibition at 3 µM for this record: `N#CC(C#N)=NNc1cc2oc(N3CCOCC3)nc2cc1Cl`
92.6

In one line, give reported inhibition at 3 µM of the entry `CC(C)N1CCN(c2nc3ccc(NN=C(C#N)C#N)cc3o2)CC1` .
57.1

Supply recorded inhibition at 3 µM for `N#CC(C#N)=NNc1ccc2nc(N3C4CCC3COC4)oc2c1` here.
91.7

Give me measured inhibition at 3 µM, please, for this compound: CC1CN(C(=O)Nc2nc3ccc(NN=C(C#N)C#N)cc3s2)CC(C)O1 (stereo not drawn)
58.7

Let me know recorded inhibition at 3 µM for `CC(=O)N(N=C(C#N)C#N)c1ccc2nc(N3CCOCC3)sc2c1` , thanks.
91.2

Provide only the value of recorded inhibition at 3 µM for N#CC(C#N)=NNc1ccc2nc(N3CCCC(F)C3)oc2c1 (stereo not drawn)
71.1

Let me know recorded inhibition at 3 µM for `CN1CCN(c2nc3ccc(NN=C(C#N)C#N)cc3o2)CC1` , thanks.
100

Provide one value: measured inhibition at 3 µM of `N#CC(C#N)=NNc1ccc2nc(N3CCOCC3)sc2c1`
100

Supply inhibition at 3 µM value. Item: `Cn1c(N2CCOCC2)nc2ccc(NN=C(C#N)C#N)cc21`
94.7

Hello, please tell me recorded inhibition at 3 µM for this one: `N#CC(C#N)=NNc1ccc2nc(N3CCNCC3)oc2c1`
98.2
